# System: Escherichia coli
# experiment-summary: Antibacterial activity against Escherichia coli isolate ARL04-413 harboring beta-lactamase CMY 2 by broth microdilution method
# Format: functional
readout-name: MIC (µg/mL)
Answer with a number only, understood to be in µg/mL.

Which measured MIC value corresponds to C[C@@H](O)[C@H]1C(=O)N2C(C(=O)O)=C(SCCNC=N)C[C@H]12 [IMIPENEM ANHYDROUS] ?
0.25

Which measured MIC value corresponds to `CO/N=C(\C(=O)N[C@@H]1C(=O)N2C(C(=O)O)=C(CSc3nc(=O)c(O)nn3C)CS[C@H]12)c1csc(N)n1` ?
32

Which measured MIC value corresponds to `CC(C)(O/N=C(\C(=O)N[C@@H]1C(=O)N2C(C(=O)[O-])=C(C[n+]3ccccc3)CS[C@H]12)c1csc(N)n1)C(=O)O` ?
64

Which measured MIC value corresponds to CO/N=C(\C(=O)N[C@@H]1C(=O)N2C(C(=O)[O-])=C(C[N+]3(C)CCCC3)CS[C@H]12)c1csc(N)n1 [CEFEPIME] ?
0.25

Values from ChEMBL document CHEMBL1649507
